Data provenance: paper PMC12069340

Listed next: entries and their corresponding viability at 20 µM.
experiment: in vitro; conditions: human, Relative Viability (%)
Structures can show the parent of a compound that is named as a salt.
I only need the number, in %, no unit after it.

Value of measured viability at 20 µM for the entry c1ccc(CC2=NCCN2)cc1 [Tolazoline HCl] : 86

* * *

assay: in vitro; settings: human, Relative Viability (%)
Structures can show the parent of a compound that is named as a salt.
Metric name: viability at 20 µM (%)
I only need the number, in %, no unit after it.

Sample records with viability at 20 µM:
Compound	Measurement unit	viability at 20 µM
Cc1nc2n(c(=O)c1CCN1CCC(c3noc4cc(F)ccc34)CC1)CCCC2O (stereo not shown)	%	110
CCCC(CCC)C(=O)O [Valproic acid sodium salt]	%	113
CC(=O)OCC[N+](C)(C)C [Acetylcholine Chloride]	%	104
O=C1c2c(O)cc(O)cc2O[C@H](c2cc(O)c(O)c(O)c2)[C@H]1O [Dihydromyricetin]	%	95.3
OCc1cc(C(O)CNCCCCCCOCCCCc2ccccc2)ccc1O (stereo not shown) [Salmeterol Xinafoate]	%	90.4
CN1CCC(=C2c3ccccc3CCn3c(C=O)cnc32)CC1	%	188
CC(C)COc1ccc(CNC(=O)N(Cc2ccc(F)cc2)C2CCN(C)CC2)cc1	%	113
C[C@](N)(Cc1ccc(O)c(O)c1)C(=O)O	%	104
Cc1cccc(C(C)c2cnc[nH]2)c1C (stereo not shown) [Medetomidine HCl]	%	103
CC(C)NCC(O)COc1ccc(CCOCC2CC2)cc1 (stereo not shown)	%	115

Value of measured viability at 20 µM for the entry CN1CCCC(n2nc(Cc3ccc(Cl)cc3)c3ccccc3c2=O)CC1 (stereo not shown) [Azelastine HCl] : 99.4

Value of measured viability at 20 µM for the entry OC[C@@H](O)CN1CCN(c2ccccc2)CC1 : 104

Value of measured viability at 20 µM for the entry Cc1cccc(C)c1NC(=O)CN1CCCC1=O : 105

Value of measured viability at 20 µM for the entry Cc1cc(C(C)(C)C)c(O)c(C)c1CC1=NCCN1 [Oxymetazoline hydrochloride] : 113

Value of measured viability at 20 µM for the entry NC12CC3CC(CC(C3)C1)C2 [Amantadine HCl] : 110

Value of measured viability at 20 µM for the entry CN(C)CCN(Cc1ccccc1)c1ccccn1 [Tripelennamine HCl] : 105

Value of measured viability at 20 µM for the entry C=CC[N+]1([C@H]2C[C@H]3[C@@H]4CC[C@H]5C[C@H](O)[C@@H](N6CCOCC6)C[C@]5(C)[C@H]4CC[C@]3(C)[C@H]2OC(C)=O)CCCC1 [Rocuronium Bromide] : 106

Value of measured viability at 20 µM for the entry CC(C)C(=O)Oc1ccc(CO)cc1[C@H](CCN(C(C)C)C(C)C)c1ccccc1 [Fesoterodine Fumarate] : 114

* * *

assay: in vitro; details: human, Relative Viability (%)
Counter-ions that a name gives are not always drawn.
Metric name: viability at 20 µM (%)
I only need the number, in %, no unit after it.

Molecule	viability at 20 µM (%)
Clc1cccc(Cl)c1N=C1NCCN1 [Clonidine HCl]	99.2
COc1cc2nc(N(C)CCCNC(=O)C3CCCO3)nc(N)c2cc1OC (stereo not shown) [Alfuzosin HCl]	110
Cc1ccc(N(CC2=NCCN2)c2cccc(O)c2)cc1 [Phentolamine Mesylate]	117

Value of measured viability at 20 µM for the entry N#Cc1ccccc1-c1cc(-c2ccccn2)cn(-c2ccccc2)c1=O : 98.8

* * *

Listed next: entries and their corresponding viability at 20 µM.
assay: in vitro; settings: human, Relative Viability (%)
Structures can show the parent of a compound that is named as a salt.
I only need the number, in %, no unit after it.

Compound	viability at 20 µM, %
CNS(=O)(=O)CCc1ccc2[nH]cc(C3CCN(C)CC3)c2c1	102
O=C(C[S+]([O-])Cc1ccco1)NC/C=C\COc1cc(CN2CCCCC2)ccn1 (stereo not drawn)	109
O=C1c2cccc3c2[C@H](CCC3)CN1[C@@H]1CN2CCC1CC2 [Palonosetron HCl]	102
CN(C)C(=O)Oc1cccc([N+](C)(C)C)c1 [Neostigmine Bromide]	114
COCCc1ccc(OCC(O)CNC(C)C)cc1 (stereo not drawn) [Metoprolol Tartrate]	106

Value of measured viability at 20 µM for the entry C[C@@H]1C(=O)O[C@H]2C[C@@]34[C@H]5C[C@@H](C(C)(C)C)[C@]36[C@@H](OC(=O)[C@@H]6O)O[C@@]4(C(=O)O5)[C@]21O [Ginkgolide A] : 109

Value of measured viability at 20 µM for the entry CN[C@H](CC(=O)O)C(=O)O : 113

Value of measured viability at 20 µM for the entry CN1CCC(=C2c3ccccc3CC(=O)c3sccc32)CC1 [Ketotifen Fumarate] : 108

Value of measured viability at 20 µM for the entry NCCc1c[nH]cn1 [Histamine Phosphate] : 98.9

Value of measured viability at 20 µM for the entry C[N+](C)(C)CCCCCC[N+](C)(C)C [Hexamethonium Bromide] : 104

Value of measured viability at 20 µM for the entry Cc1cccc([C@H](C)c2cnc[nH]2)c1C [Dexmedetomidine HCl (Precedex), Dexmedetomidine HCl] : 120

Value of measured viability at 20 µM for the entry Cc1cccn2c(=O)c(-c3nnn[nH]3)cnc12 : 108
